# experimentSummary: recombinant barcode read abundance after kanamycin selection (control-corrected) (log10(CPM+1)); higher = more efficient recombination; sequences stand for … in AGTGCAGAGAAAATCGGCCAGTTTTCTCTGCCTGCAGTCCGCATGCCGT…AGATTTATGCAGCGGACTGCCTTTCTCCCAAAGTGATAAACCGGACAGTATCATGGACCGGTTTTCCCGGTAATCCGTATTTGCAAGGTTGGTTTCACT; site = the 11-nt target;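 also: IS621 recombinase and bridge RNA in Escherichia coli cells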
Use 0.07 as the dividing line for recombinant barcode read abundance (log10), with the line itself on the criterion met side and lower values as criterion not met.

Query string: State whether the measured recombinant barcode read abundance (log10) reaches 0.07, counting equality as reaching it, for CCTTGTACTTGGGTTCTAACCTGTTGCTT (site AGCATCTCTCG)
Result string: criterion not met

Query string: Does the reported recombinant barcode read abundance (log10) for AGTGAACCTTGGGTTCTAACCTGTTGCCT (site AGTGAACCTAG) fall at or above the 0.07 mark?
Result string: criterion met

Query string: recombinant barcode read abundance (log10) >= 0.07 for TGCTTCCCTTGGGTTCTAACCTGTTGCGG (site TGCTTCCCTCC) ?
Result string: criterion met

Query string: // inclusive: recombinant barcode read abundance (log10) at least 0.07? input: TAGTATGCTTGGGTTCTAACCTGTTGCTA (site TAGTATGCTTA)
Result string: criterion met

----------
# experimentSummary: recombinant barcode read abundance after kanamycin selection (control-corrected) (log10(CPM+1)); higher = more efficient recombination; sequences stand for … in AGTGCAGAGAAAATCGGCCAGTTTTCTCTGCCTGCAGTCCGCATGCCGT…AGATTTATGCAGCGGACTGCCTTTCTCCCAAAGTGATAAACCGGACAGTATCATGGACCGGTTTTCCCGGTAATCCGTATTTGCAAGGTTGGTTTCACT; site = the 11-nt target
Would you mind sorting the entries by recombinant barcode read abundance (log10) according to these classes? bottom end: < 0.2; midrange: ≥ 0.2 and < 0.8; top end: ≥ 0.8

Query string: Classify this sequence: ACAAAACCTTGGGTTCTAACCTGTTGCCT (site ACAAAGCCTAG)
Result string: bottom end

Query string: # bin label for CTTGCGACTTGGGTTCTAACCTGTTGCTT (site TGCATAGCTTG)
Result string: bottom end

Query string: Field: class (recombinant barcode read abundance (log10)) — entry: CGAGCTCCTTGGGTTCTAACCTGTTGCGT (site CGAGCTCCTAT)
Result string: midrange

Query string: Which bin, given its recombinant barcode read abundance (log10), does GAGCCTACTTGGGTTCTAACCTGTTGCTA (site GAGCCTACTTA) occupy?
Result string: top end

Query string: Sort into band: AGGCGCCCTTGGGTTCTAACCTGTTGCAT (site AGGCGCCCTGT)
Result string: midrange

Query string: Looking at CGATGTCCTTGGGTTCTAACCTGTTGCCT (site CGATGTCCTAG) , which class would you pick?
Result string: top end

Query string: Categorize the following entry: CATTTAGCTTGGGTTCTAACCTGTTGCGG (site CATTTAGCTCC)
Result string: top end

Query string: Exercise: read the entry CTATTCACTTGGGTTCTAACCTGTTGCCT (site CTATTCGCTAG) and state which class it falls under.
Result string: bottom end

Query string: Band assignment needed for TCCGAAGCTTGGGTTCTAACCTGTTGCCT (site TCCGAAGCTAG) please.
Result string: midrange

Values compiled from the supplement of paper PMC11208160.
